Ref: ChEMBL document CHEMBL3407388

test system: 786-0; test: Cytotoxicity against human 786-0 cells assessed as growth inhibition after 48 hrs by SRB assay; assay type: functional; settings: 786-0, 48 h
property_name: GI50 (nM)
Reply numerically in nM, unit not repeated.

Illustrative cases are given below, each with its answer.
COc1ccc(/C(C#N)=C/c2cc3ccccc3o2)cc1OC : 5840
COc1cc(/C(C#N)=C/c2nc3ccccc3s2)cc(OC)c1OC : 1060

Looking up COc1ccc(/C(C#N)=C/c2c[nH]c3ccccc23)cc1OC , I found its GI50 recorded as 14100

Looking up COc1cc(/C(C#N)=C/c2cc3ccccc3n2Cc2ccc(C#N)cc2)cc(OC)c1OC , I found its GI50 recorded as 137

Looking up COc1ccc2[nH]cc(/C=C(\C#N)c3cc(OC)c(OC)c(OC)c3)c2c1 , I found its GI50 recorded as 85

Looking up COc1cc(/C(C#N)=C/c2coc3ccccc23)cc(OC)c1OC , I found its GI50 recorded as 6110

Looking up COc1cc(/C(C#N)=C/c2c[nH]c3ccccc23)cc(OC)c1OC , I found its GI50 recorded as 90

Looking up COc1ccc(/C(C#N)=C/c2cc3ccccc3[nH]2)cc1OC , I found its GI50 recorded as 602

Looking up COc1cc(OC)cc(/C(C#N)=C/c2c[nH]c3ccccc23)c1 , I found its GI50 recorded as 77

Looking up COc1cc(OC)cc(/C(C#N)=C/c2nc3ccccc3s2)c1 , I found its GI50 recorded as 2440
